Origin of the recorded values: patent US4288590A

- ASSAY SUMMARY: Additional mouse blood levels after intramuscular administration (Table 4)
- Type: in vivo
- CONDITION CONTEXT: 20 mg/kg, mice, im, dose 20, 2 hour, read-out: Blood level
Counter-ions that a name gives are not always drawn.

{"MOLECULE": "CCN1CCN(C(=O)N[C@@H](C(=O)N[C@@H]2C(=O)N3C(C(=O)O)=C(CSc4nnnn4C)CS[C@H]23)c2ccc(O)cc2)C(=O)C1=O [Cefoperazone, reference compound]", "concentration at 2 h": "< 800 ng/mL"}
{"MOLECULE": "CN(C)Cc1ccc[n+](CC2=C(C(=O)[O-])N3C(=O)C(NC(=O)[C@H](NC(=O)c4cnc5cccnc5c4O)c4ccc(O)cc4)C3SC2)c1 (some centres unmarked) [BB-S 651, Hydrochloride]", "concentration at 2 h": "< 800 ng/mL"}

---

# reported concentration at 0.5 h; entries follow
- ASSAY SUMMARY: Mouse blood levels after intramuscular administration (Table 3)
- Assay type: in vivo
- CONDITION CONTEXT: im, 10 mg/kg, 30', read-out: Blood level
- Experimental: […] The blood samples were collected from the orbital sinuses into heparinized capillary tubes at 15, 30, 60 and 120 minutes after administration. The antibiotic concentration was determined by the paper disc-agar diffusion method using E. coli NIHJ or S. lutea PCI 1001 as the assay organism.
Structures can show the parent of a compound that is named as a salt.
METRIC NAME: concentration at 0.5 h (ng/mL)

{"COMPOUND": "CN(C)Cc1ccc[n+](CC2=C(C(=O)[O-])N3C(=O)C(NC(=O)[C@H](NC(=O)c4cnc5cccnc5c4O)c4ccc(O)cc4)C3SC2)c1 (some centres unmarked) [BB-S 651, Hydrochloride]", "METRIC NAME": "concentration at 0.5 h", "NUMERIC READOUT": 3000}
{"COMPOUND": "CCN1CCN(C(=O)N[C@@H](C(=O)N[C@@H]2C(=O)N3C(C(=O)O)=C(CSc4nnnn4C)CS[C@H]23)c2ccc(O)cc2)C(=O)C1=O [Cefoperazone, reference compound]", "METRIC NAME": "concentration at 0.5 h", "NUMERIC READOUT": 1800}

---

Attribute: concentration at 0.25 h
- ASSAY SUMMARY: Additional mouse blood levels after intramuscular administration (Table 4)
- Type: in vivo
- CONDITION CONTEXT: mice, im, 40 mg/kg, 1/4 hour, read-out: Blood level
Structures can show the parent of a compound that is named as a salt.
METRIC NAME: concentration at 0.25 h (ng/mL)

{"MOLECULE": "CCN1CCN(C(=O)N[C@@H](C(=O)N[C@@H]2C(=O)N3C(C(=O)O)=C(CSc4nnnn4C)CS[C@H]23)c2ccc(O)cc2)C(=O)C1=O [Cefoperazone, reference compound]", "SCALE UNIT": "ng/mL", "NUMERIC READOUT": 18000}
{"MOLECULE": "CN(C)Cc1ccc[n+](CC2=C(C(=O)[O-])N3C(=O)C(NC(=O)[C@H](NC(=O)c4cnc5cccnc5c4O)c4ccc(O)cc4)C3SC2)c1 (some centres unmarked) [BB-S 651, Hydrochloride]", "SCALE UNIT": "ng/mL", "NUMERIC READOUT": 20000}

---

Catalogue of concentration at 1 h readings, one per entry.
- ASSAY SUMMARY: Mouse blood levels after intramuscular administration (Table 3)
- Assay type: in vivo
- CONDITION CONTEXT: im, 10 mg/kg, 60', read-out: Blood level
Where a name gives a salt, the structure may show the parent alone.

{"MOLECULE": "CCN1CCN(C(=O)N[C@@H](C(=O)N[C@@H]2C(=O)N3C(C(=O)O)=C(CSc4nnnn4C)CS[C@H]23)c2ccc(O)cc2)C(=O)C1=O [Cefoperazone, reference compound]", "concentration at 1 h": "< 400 ng/mL"}
{"MOLECULE": "CN(C)Cc1ccc[n+](CC2=C(C(=O)[O-])N3C(=O)C(NC(=O)[C@H](NC(=O)c4cnc5cccnc5c4O)c4ccc(O)cc4)C3SC2)c1 (some centres unmarked) [BB-S 651, Hydrochloride]", "concentration at 1 h": "< 400 ng/mL"}
